Each entry below lists one item and its recorded cell viability value.
- System: U2OS
- experiment.summary: cell viability relative to DMSO; higher = less toxic
- applied.conditions: 72 h; 10000 nM
Report as a plain number; the unit % is understood.

Example results:
>  <molecule>
CCc1c(C(=O)Nc2cc(S(=O)(=O)N(CC)CC)ccc2O)[nH]c(C)c1C(C)=O [XD-14]

>  <target>
U2OS

>  <parameter.measured>
cell viability

>  <reading>
87.4

$$$$
>  <molecule>
C=CCN1CCCC1CNC(=O)c1cc2nn[nH]c2cc1OC (centres undefined) [alizapride]

>  <target>
U2OS

>  <parameter.measured>
cell viability

>  <reading>
100

$$$$
>  <molecule>
Cc1cc(N2CCCCC2)nc2ccccc12 [ML204]

>  <target>
U2OS

>  <parameter.measured>
cell viability

>  <reading>
101

$$$$
>  <molecule>
CCOC(=O)c1ccccc1OC(=O)CCCCCCCC(=O)Oc1ccccc1C(=O)OCC [TU-2100]

>  <target>
U2OS

>  <parameter.measured>
cell viability

>  <reading>
99.3

$$$$
>  <molecule>
CCC[C@H](NC(=O)/C(C#N)=C/c1cccc(Br)n1)c1ccccc1 [WP1130]

>  <target>
U2OS

>  <parameter.measured>
cell viability

>  <reading>
0.9

$$$$
>  <molecule>
C[C@H]1C[C@H]2[C@@H]3CCC4=CC(=O)C=C[C@]4(C)[C@H]3C(=O)C[C@]2(C)[C@@]1(O)C(=O)CO [Betapar (Meprednisone)]

>  <target>
U2OS

>  <parameter.measured>
cell viability

>  <reading>
95.1

$$$$
>  <molecule>
CCC(CC)CC1(C(=O)Nc2ccccc2SC(=O)C(C)C)CCCCC1 [dalcetrapib]

>  <target>
U2OS

>  <parameter.measured>
cell viability

>  <reading>
104

$$$$
>  <molecule>
C[C@]12CC[C@H](O)CC1=CC[C@@H]1[C@@H]2CC[C@]2(C)C(c3cccnc3)=CC[C@@H]12 [Abiraterone (CB-7598)]

>  <target>
U2OS

>  <parameter.measured>
cell viability

>  <reading>
104

$$$$

Next up:
Look up cell viability for this molecule: CN1CCC2=C(C1)C(c1ccccc1)c1ccccc12 (centres undefined) [phenindamine]
92.6
